- measured_target: T1, TP-25 peptide (human, also: biotinylated, site not given here)
- T1 construct: 15-mer of human TDP-43 from the library spanning aa 199-285; captured on streptavidin plates
- T1 peptide: VMDVFIPKPFRAFAF
- assay_notes: indirect ELISA, biotinylated 15-mer peptide on streptavidin plate, hybridoma supernatant
Where no end group is shown, it is not given here.
property_measured: OD

ACI-7062-415C4-Ab1 (antibody, IgG1, V domains shown, also called 415C4C6; clone 14) VH: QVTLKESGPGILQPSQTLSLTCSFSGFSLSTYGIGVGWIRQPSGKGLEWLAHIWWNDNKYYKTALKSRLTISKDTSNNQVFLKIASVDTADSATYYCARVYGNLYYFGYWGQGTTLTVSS VL: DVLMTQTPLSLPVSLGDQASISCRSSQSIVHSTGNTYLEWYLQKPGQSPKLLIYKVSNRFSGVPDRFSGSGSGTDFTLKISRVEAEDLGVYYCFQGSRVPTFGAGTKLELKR :: 1.2 O.D. (405 nm)

API: the following record is the query input.
Form: binder = ACI-7062-410H3-Ab1 (antibody, IgG1, V domains shown, also called 410H3B9; clone 7) VH: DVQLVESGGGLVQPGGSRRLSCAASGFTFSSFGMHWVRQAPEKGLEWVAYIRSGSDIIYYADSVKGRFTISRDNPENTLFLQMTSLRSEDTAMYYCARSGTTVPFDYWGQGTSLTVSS VL: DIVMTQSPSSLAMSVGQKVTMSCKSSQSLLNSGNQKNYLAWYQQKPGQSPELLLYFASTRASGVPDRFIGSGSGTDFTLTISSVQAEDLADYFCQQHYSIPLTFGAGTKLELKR ; OD = 0.8 O.D. (405 nm)
